Reference for the values: patent US20160193316A1

test system: DRB1*0301 (DR3) (Homo sapiens, UniProt P01903+P01911, A100K/A102G/A103R/A169T/F55Y/I96L/K41T/L162R/M171V/P40S/Q125H/Q178H/Q39Y/R42S/S66N/T106N/T262R/W38E/Y61H)
Construct: endogenous in cells; host or cells: MAT
Sequence (P01911 30-266 W38E/Q39Y/P40S/K41T/R42S/F55Y/Y61H/S66N/I96L/A100K/A102G/A103R/T106N/Q125H/Q178H): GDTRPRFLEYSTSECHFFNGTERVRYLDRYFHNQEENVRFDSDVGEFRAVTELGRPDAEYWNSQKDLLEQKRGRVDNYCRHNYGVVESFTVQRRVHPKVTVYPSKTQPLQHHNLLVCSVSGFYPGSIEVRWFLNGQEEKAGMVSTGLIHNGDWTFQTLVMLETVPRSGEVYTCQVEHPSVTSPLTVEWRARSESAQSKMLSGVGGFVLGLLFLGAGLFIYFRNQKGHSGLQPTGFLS
Sequence (P01903 26-254 partner): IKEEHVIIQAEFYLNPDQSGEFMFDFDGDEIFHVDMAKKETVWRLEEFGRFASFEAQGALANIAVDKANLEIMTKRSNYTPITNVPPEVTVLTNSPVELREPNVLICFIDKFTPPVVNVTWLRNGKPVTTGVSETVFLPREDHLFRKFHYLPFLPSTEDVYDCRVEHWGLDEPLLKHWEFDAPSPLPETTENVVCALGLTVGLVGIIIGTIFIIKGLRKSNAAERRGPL
protocol summary: HLA class II peptide binding assay (pH 4.5)
experimental conditions: Table XIXb; DR3
Label true when DR3 binding data is at or above -0.0008; anything below gets false.

hey, is DR3 binding data for this one >= -0.0008? LALFFIIFN false

// inclusive: DR3 binding data at least -0.0008? input: LAILSVSSF false

hey, is DR3 binding data for this one >= -0.0008? VNHAVPLAM true

// inclusive: DR3 binding data at least -0.0008? input: LTMSNVKNV true

Threshold query (DR3 binding data >= -0.0008) on IQNHTLETV false

DR3 binding data >= -0.0008 for LHEGCTSEL ? false

hey, is DR3 binding data for this one >= -0.0008? YQNNIVDEI true

Tell me whether DR3 binding data is at least -0.0008 here: LGNVSTVLL true

Please check the record WVNHAVPLA and state if its DR3 binding data is at or above -0.0008. true

Would you say LATSVLAGL shows DR3 binding data at minimum -0.0008? true

hey, is DR3 binding data for this one >= -0.0008? VHDLISDMI true

====

test system: HLA-A*1101 (Homo sapiens, UniProt P04439, A114D/D185E/E176A/F33Y/L180Q/S129P/T187R)
protocol summary: HLA class I peptide binding assay
experimental conditions: Malaria A11 motif peptides, Table XVII; binding value for HLA-A*1101, unit not given
observable: A*1101 binding information
// print number alone

Item under review: ESITINVEGR . Reported A*1101 binding information? 0.0002

Data request, read-out A*1101 binding information, for LGVSENTIFLK 0.0063

Record request: A*1101 binding information value, item KGKKYEKIK 0.0002

Name the reported A*1101 binding information value associated with the sequence KSLYDEHIIK 0.0340

Which A*1101 binding information is listed for EDMCYFMK ? 0.0003

Value lookup for A*1101 binding information; key = FLKENKLNK 0.0005

Look up A*1101 binding information for this sequence: IFLKENIQNK 0.0002

====

test system: HLA-A*1101 (Homo sapiens, UniProt P04439, A114D/D185E/E176A/F33Y/L180Q/S129P/T187R)
protocol summary: HLA class I peptide binding assay
experimental conditions: Table XVII, malaria A11 motif peptides; binding value unit not given
For each entry below, report its A*1101 binding information value.
Answer field: number only, no words.

Given the entry LSTNLPYGR , report its measured A*1101 binding information. 0.0100

# get_value(readout='A*1101 binding information', item= WSPCSVTCGK ) 0.0002

Could you tell me which A*1101 binding information is on file for VVPGAATPY ? 0.0002

Reported A*1101 binding information, sequence TCGKGIRSRK : ____ 0.0002

====

test system: DRB5*0101 (DR2w2β2) (Homo sapiens, UniProt P01903+Q30154)
Construct: expressed in transfected cells; host or cells: L416.3 (fibroblasts) or GM3107
Type: binding
The recorded DR2w2β2 binding data of each item maps onto one of these classes: lower segment: < -0.0005; middle segment: ≥ -0.0005 and < 0.004; upper segment: ≥ 0.004

State the band of LAMKLIQQL lower segment

Which category fits this record: VHDLISDMI upper segment

Categorize the following entry: LGNVSTVLL middle segment

Bin? LTDGIPDSI lower segment

Consider LALFFIIFN . To which DR2w2β2 binding data class does it belong? lower segment

Which class is correct for the following sequence? YLLMDCSGS upper segment

Band of LIFFDLFLV ? middle segment

Into which bin does this sequence go? LTMSNVKNV middle segment

Looking at WVNHAVPLA , which class would you pick? upper segment

Tag the class for FYFILVNLL upper segment

Which bin should I file WDEWSPCSV under? lower segment

Field: class (DR2w2β2 binding data) — entry: LAILSVSSF upper segment

Could you tell me which band LALLACAGL belongs to? middle segment

Place this sequence in its band: LATSVLAGL upper segment

For FMKAVCVEV , which DR2w2β2 binding data bin applies? upper segment

In plain terms, what class is LGGVGLVLY ? lower segment
